# TEST_SUMMARY: Cytotoxicity against human Med cells by MTT assay
# Type: cell-based
# COND: read-out: ED50 (the source's name)
PROPERTY: CC50

* C=C1C(=O)O[C@@H]2C[C@H]1C/C=C(\C)[C@@H](O)CC/C(C)=C/CC[C@]2(C)O [MANAARENOLIDE G] | 13.4 µg/mL

Turning now to a further record.
Ask: Which CC50 is reported for this compound? C=C1C(=O)O[C@@H]2C[C@H]1C/C=C(/C)[C@@H](O)CC/C(C)=C/CC[C@]2(C)O [MANAARENOLIDE H]
Result: 5.8 µg/mL
